B1: TPR t1 (parent)
chain: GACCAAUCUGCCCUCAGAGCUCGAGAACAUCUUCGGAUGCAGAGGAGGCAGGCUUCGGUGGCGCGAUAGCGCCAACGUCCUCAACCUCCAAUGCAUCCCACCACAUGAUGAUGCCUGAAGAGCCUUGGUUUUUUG

- Variants of: B1
- assay_comment: polymerase ribozyme fitness, log enrichment relative to wild type (log ratio); higher = more active; in vitro selection for triplet polymerase activity
Param threshold (-4) applies to polymerase ribozyme fitness (log ratio); output satisfied when value >= threshold, not satisfied when value < threshold.

| mutation_notation | label |
| --- | --- |
| C4G C13A C89A U130C | satisfied |
| C11A U30C | not satisfied |
| C40A U131A | satisfied |

input: Does A100U C123G have a reported polymerase ribozyme fitness (log ratio) of at least -4?
output: satisfied

input: Does C53U G122A have a reported polymerase ribozyme fitness (log ratio) of at least -4?
output: satisfied

input: Does C4G G44A G60C A111G have a reported polymerase ribozyme fitness (log ratio) of at least -4?
output: satisfied

input: Does U9G G77U C123U have a reported polymerase ribozyme fitness (log ratio) of at least -4?
output: satisfied

input: Does G10A C97A have a reported polymerase ribozyme fitness (log ratio) of at least -4?
output: not satisfied

input: Does G77A C101A have a reported polymerase ribozyme fitness (log ratio) of at least -4?
output: satisfied

input: Does U92A G120U have a reported polymerase ribozyme fitness (log ratio) of at least -4?
output: satisfied

input: Does C8G A24G C124U U126G have a reported polymerase ribozyme fitness (log ratio) of at least -4?
output: satisfied

input: Does C3U C28A U112A have a reported polymerase ribozyme fitness (log ratio) of at least -4?
output: satisfied

input: Does U9G C56U C62U C94U U96A have a reported polymerase ribozyme fitness (log ratio) of at least -4?
output: satisfied

input: Does A41U C53A C114G have a reported polymerase ribozyme fitness (log ratio) of at least -4?
output: satisfied

input: Does G19A C73U C86U U96A G110A have a reported polymerase ribozyme fitness (log ratio) of at least -4?
output: not satisfied

The origin of these recorded values is the RNAGym collection of RNA variant scans (doi:10.1073/pnas.2313332121).
